Biological target: T1, Bud14, P27637
T1 sequence (P27637 247-328, looked up): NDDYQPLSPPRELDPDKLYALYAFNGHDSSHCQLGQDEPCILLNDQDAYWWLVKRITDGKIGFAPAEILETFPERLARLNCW
Assay: SPOT array
Settings: median of control spots 956
readoutType: SPOT intensity

Previously resolved entries follow.
[[record]]
binder = "PSRRDSLSIPRAVDA"
readouttype = "SPOT intensity"
numericvalue = 0

[[record]]
binder = "RRRRRPHRIERPLSN"
readouttype = "SPOT intensity"
numericvalue = 24

[[record]]
binder = "KFIPSRPAPKPPSSA"
readouttype = "SPOT intensity"
numericvalue = 0

[[record]]
binder = "RRASLFPRDPKRLRP"
readouttype = "SPOT intensity"
numericvalue = 10


(A) FLIKFTPKFPQSIDH
(B) WTQRRGPLVVYAEDN
Which entry has a larger number for SPOT intensity, A or B ? Write down the label attached to your selection.
A
(A: 5, B: 0)
